B1: POU domain, class 2, transcription factor 1, residues 285 to 354; numbered along this chain, P14859 (parent)
chain: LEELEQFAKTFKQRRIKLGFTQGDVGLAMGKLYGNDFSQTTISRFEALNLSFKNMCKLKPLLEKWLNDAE

Variants of: B1
Assay: abundance fitness (aPCA) (normalised: wild type 0, dead -1); higher = more abundant; growth selection in yeast, the domain comes from the species named
Details: Homo sapiens
Class field: derived from abundance fitness; ranges low bracket = under -0.2, middle bracket = from -0.2 up to -0.02, high bracket = -0.02 and over

Before answering, review these 3 worked examples.
sequence_variant=E70S category="high bracket"
sequence_variant=L27K category="middle bracket"
sequence_variant=L27Q category="high bracket"

Bin this entry: Q39M
middle bracket

Bin this entry: K59A
middle bracket

Bin this entry: Q39G
high bracket

Bin this entry: M55W
low bracket

Bin this entry: L4M
middle bracket

Bin this entry: L32V
low bracket

Bin this entry: L66Y
middle bracket

Bin this entry: R14N
low bracket

Bin this entry: G30N
middle bracket

Bin this entry: K53H
middle bracket

Bin this entry: S51P
high bracket

Bin this entry: E46C
low bracket

Bin this entry: F20L
middle bracket

Bin this entry: E5L
middle bracket

Bin this entry: R15L
low bracket

Bin this entry: R14K
high bracket

Bin this entry: E3Y
middle bracket

Bin this entry: K12F
low bracket

Entry source: the Human Domainome abundance scans (Beltran et al. 2025)
